target: Bcl-2 protein (Recombinant Human Bcl-2 Protein) (Homo sapiens); construct: purchased Novus NBP2-34889; assay: Binding evaluation of mixture library compounds to Bcl-2 using AS-MS (affinity selection mass spectrometry); settings: AS-MS, mixture library, Bcl-2; replicate n = 2; ASMS Ratio(%)=(A−C)/B×100
Sequence (P10415 whole entry): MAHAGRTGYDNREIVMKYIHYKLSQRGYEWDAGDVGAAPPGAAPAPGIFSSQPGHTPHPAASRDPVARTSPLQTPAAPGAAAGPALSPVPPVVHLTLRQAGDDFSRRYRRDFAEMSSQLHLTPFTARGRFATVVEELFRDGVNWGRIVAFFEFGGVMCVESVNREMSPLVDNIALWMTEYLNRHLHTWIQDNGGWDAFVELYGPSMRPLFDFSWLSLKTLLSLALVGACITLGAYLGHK
measured.metric: ASMS ratio (%) n = 2

// worked examples, ASMS ratio (%) n = 2 included
| query.smiles | target.system | units | ASMS ratio (%) n = 2 |
| --- | --- | --- | --- |
| CCOc1cncc(-c2ccc(C(=O)N3CCN(c4ccc(C(=O)NS(=O)(=O)c5ccc(NCCSc6ccccc6)c([N+](=O)[O-])c5)cc4)CC3)c3ccccc23)c1 | Bcl-2 protein (Recombinant Human Bcl-2 Protein) (Homo sapiens) | % | −6.0 |
| CCOc1cccc(-c2ccc(CN3CCN(c4ccc(C(=O)NS(=O)(=O)CC56CC7CC(CC(C7)C5)C6)nn4)CC3)c(CC)c2)c1 | Bcl-2 protein (Recombinant Human Bcl-2 Protein) (Homo sapiens) | % | 4.4 |
| CCOc1cccc(-c2ccc(C(=O)N3CCN(c4ccc(C(=O)NS(C)(=O)=O)nn4)CC3)c3ccccc23)c1 | Bcl-2 protein (Recombinant Human Bcl-2 Protein) (Homo sapiens) | % | 0.0 |
| CCOc1cccc(-c2cc(C(=O)N3CCN(c4ccc(C(=O)NS(=O)(=O)CC56CC7CC(CC(C7)C5)C6)nn4)CC3)cc(C(F)(F)F)c2)c1 | Bcl-2 protein (Recombinant Human Bcl-2 Protein) (Homo sapiens) | % | 7.5 |
| CCOc1cncc(C#Cc2cc(C(=O)N3CCN(c4ccc(C(=O)NS(C)(=O)=O)nn4)CC3)cc(C(F)(F)F)c2)c1 | Bcl-2 protein (Recombinant Human Bcl-2 Protein) (Homo sapiens) | % | 0.0 |
| CCOc1cncc(-c2csc(C(=O)N3CCN(c4ccc(C(=O)NS(C)(=O)=O)nn4)CC3)c2)c1 | Bcl-2 protein (Recombinant Human Bcl-2 Protein) (Homo sapiens) | % | 0.0 |

(A) CCOc1cccc(-c2cc(C(=O)N3CCN(c4ccc(C(=O)NS(=O)(=O)CC56CC7CC(CC(C7)C5)C6)cc4)CC3)cc(C(F)(F)F)c2)c1
(B) CCOc1cncc(-c2cc(CN3CCN(c4ccc(C(=O)N(CC)CC)nn4)CC3)cc(C(F)(F)F)c2)c1
(C) CCOc1cncc(C#Cc2cncc(C(=O)N3CCN(c4ccc(C(=O)NS(=O)(=O)c5ccc(NCCSc6ccccc6)c([N+](=O)[O-])c5)nn4)CC3)c2)c1
(D) CCOc1cncc(-c2ccc(CN3CCN(c4ccc(C(=O)N(CC)CC)nn4)CC3)cc2F)c1
Provide the items ranked by increasing ASMS ratio (%) n = 2. # format: label list in the order the request specifies
A, B, D, C
(A: −10.4%, B: 0.0%, D: 0.9%, C: 8.9%)
